- assay.protocol: Solubility of (S)-ketorolac in phosphate buffer solutions with different pH (Test Example 2)
- Format: physicochemical
- setup.conditions: 25 °C, aqueous buffer, thermodynamic from solid; phosphate buffer solution pH 7.0; read-out: Saturation solubility at 25° C.
assay.endpoint: solubility at 24 h (µg/mL)
// return numeric value only (unit: µg/mL, not printed)

(Q) Which value of solubility at 24 h has been reported for O=C(c1ccccc1)c1ccc2n1CC[C@@H]2C(=O)O [(S)-ketorolac] in the records?
(A) 4090

###

- assay.protocol: in vivo
- setup.conditions: cynomolgus monkey, iv, 2.4 mg/kg
assay.endpoint: Vd (L/kg)
Form entry: value (L/kg) — number only.

(Q) I have this compound here, O=C(c1ccccc1)c1ccc2n1CC[C@@H]2C(=O)O [(S)-ketorolac] , and I need its recorded Vd.
(A) 0.18

###

- assay.protocol: Pharmacokinetic testing after single intravenous administration in beagle dogs
- Type: in vivo
- setup.conditions: dog, plasma, single intravenous (S)-ketorolac 3.2 mg/kg, mean ± standard deviation
assay.endpoint: clearance

(Q) Need clearance of O=C(c1ccccc1)c1ccc2n1CC[C@@H]2C(=O)O [(S)-ketorolac] , thanks.
(A) 0.472 mL/min/kg

###

- assay.protocol: Pharmacokinetic testing after single intravenous administration in beagle dogs
- Format: in vivo
- setup.conditions: dog, plasma, single intravenous (S)-ketorolac 0.16 mg/kg, mean ± standard deviation, read-out: Vss
assay.endpoint: Vd (L/kg)
Please reply with the bare figure in L/kg and do not write the unit itself.

(Q) Name the recorded Vd for O=C(c1ccccc1)c1ccc2n1CC[C@@H]2C(=O)O [(S)-ketorolac] .
(A) 1.29

###

- assay.protocol: Pharmacokinetic testing after single intravenous administration in beagle dogs
- Format: in vivo
- setup.conditions: dog, single intravenous (S)-ketorolac 3.2 mg/kg, plasma analyte = label, mean ± standard deviation
assay.endpoint: half-life
Please answer in the form of a number followed by its unit of measurement.

(Q) Which half-life value is on record for O=C(c1ccccc1)c1ccc2n1CC[C@@H]2C(=O)O [(S)-ketorolac] ?
(A) 10.3 h

###

- assay.protocol: in vivo
- setup.conditions: cynomolgus monkey, iv, 0.24 mg/kg
- Description: Representative batches of lyophilized powder injection of (S)-ketorolac described in the present application were selected to examine the drug metabolism in vivo of beagle dogs and cynomolgus monkeys. […] The concentration of (S)-ketorolac and (R)-ketorolac in plasma samples was measured by LC-MS/MS, and the blood drug concentration-time curve was plotted to obtain the main pharmacokinetic parameters and examine the chiral transformation of (S)-ketorolac and (R)-ketorolac in animals.
assay.endpoint: clearance
Please make sure the unit comes right after the number.

(Q) Given the compound O=C(c1ccccc1)c1ccc2n1CC[C@@H]2C(=O)O [(S)-ketorolac] , what is its reported clearance?
(A) 0.106 L/h/kg

###

- assay.protocol: in vivo
- setup.conditions: cynomolgus monkey, iv, 2.4 mg/kg
assay.endpoint: clearance (mL/min/kg)
Just the number in mL/min/kg, nothing appended.

(Q) // clearance lookup, key: O=C(c1ccccc1)c1ccc2n1CC[C@@H]2C(=O)O [(S)-ketorolac]
(A) 1.7

###

- assay.protocol: Pharmacokinetic testing after single intravenous administration in beagle dogs
- Type: in vivo
- setup.conditions: dog, single intravenous (S)-ketorolac 3.2 mg/kg, plasma analyte = label, mean ± standard deviation, read-out: MRT0-t
assay.endpoint: MRT last (h)
Your answer should be a plain number; it is taken to be in h.

(Q) Quick check: MRT last of O=C(c1ccccc1)c1ccc2n1CC[C@H]2C(=O)O [(R)-ketorolac] ?
(A) 3.52

We next turn to a different compound, shown below.
(Q) I have this compound here, O=C(c1ccccc1)c1ccc2n1CC[C@@H]2C(=O)O [(S)-ketorolac] , and I need its recorded MRT last.
(A) 2.5

###

- assay.protocol: in vivo
- setup.conditions: cynomolgus monkey, iv, 0.24 mg/kg
assay.endpoint: Vd (L/kg)
Entry rule: numbers only, all in L/kg.

(Q) Need Vd of O=C(c1ccccc1)c1ccc2n1CC[C@@H]2C(=O)O [(S)-ketorolac] , thanks.
(A) 0.224

###

Below: a set of entries, each annotated with reported half-life.
- assay.protocol: Pharmacokinetic testing after single intravenous administration in beagle dogs
- Format: in vivo
- setup.conditions: dog, single intravenous (S)-ketorolac 0.16 mg/kg, plasma analyte = label, mean ± standard deviation
Supply the numeric figure in h, leaving out any unit text.

(Q) Item under review: O=C(c1ccccc1)c1ccc2n1CC[C@H]2C(=O)O [(R)-ketorolac] . Reported half-life?
(A) 22.7

Next:
(Q) So what's the measured half-life for this one? O=C(c1ccccc1)c1ccc2n1CC[C@@H]2C(=O)O [(S)-ketorolac]
(A) 7.13

###

- assay.protocol: Pharmacokinetic testing after single intravenous administration in beagle dogs
- Format: in vivo
- setup.conditions: dog, plasma, single intravenous (S)-ketorolac 3.2 mg/kg, mean ± standard deviation, read-out: Vss
assay.endpoint: Vd (L/kg)
Response body: numeric value in L/kg, unit text excluded.

(Q) I am curious: what Vd value has been reported for O=C(c1ccccc1)c1ccc2n1CC[C@@H]2C(=O)O [(S)-ketorolac] ?
(A) 0.391

###

- assay.protocol: Solubility of (S)-ketorolac in phosphate buffer solutions with different pH (Test Example 2)
- Assay type: physicochemical
- setup.conditions: 25 °C, aqueous buffer, thermodynamic from solid; phosphate buffer solution pH 7.4; read-out: Saturation solubility at 25° C.
assay.endpoint: solubility at 24 h (µg/mL)
The reply should contain only the number, in µg/mL.

(Q) Form field: reported solubility at 24 h of O=C(c1ccccc1)c1ccc2n1CC[C@@H]2C(=O)O [(S)-ketorolac]
(A) 4720

###

- assay.protocol: Pharmacokinetic testing after single intravenous administration in beagle dogs
- Format: in vivo
- setup.conditions: dog, single intravenous (S)-ketorolac 0.16 mg/kg, plasma analyte = label, mean ± standard deviation, read-out: MRT0-t
assay.endpoint: MRT last (h)
Could you give me the number in h? Just the number is fine.

(Q) What MRT last value was documented for this compound, O=C(c1ccccc1)c1ccc2n1CC[C@H]2C(=O)O [(R)-ketorolac] ?
(A) 3.07

As a next step, examine the compound that follows.
(Q) Request the reported MRT last associated with O=C(c1ccccc1)c1ccc2n1CC[C@@H]2C(=O)O [(S)-ketorolac]
(A) 1.61
